Give self-cleavage for every item shown.
B1: HDV Ribozyme (parent)
chain: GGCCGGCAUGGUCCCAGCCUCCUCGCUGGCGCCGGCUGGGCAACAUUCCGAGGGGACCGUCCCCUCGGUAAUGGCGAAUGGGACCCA

# Variants of: B1
# experiment description: self-cleavage, relative activity (ratio to wild type); higher = more cleavage; co-transcriptional
One number for each entry.

Study these solved cases before continuing.
   variant_notation  quantitative_result
0         G54U C84U                0.808
1         G25C A45G                0.104
2         U20G A71G                0.196

State recorded self-cleavage for all listed variants.
1. G40C A51G
2. U37G U79A
3. G52A G53A

1. 0.288
2. 0
3. 0.89

Would you mind giving self-cleavage for every variant in the list below?
1. C33U C62G
2. C49U C62A
3. G2U G52U
4. G5A C13A
5. G50C U65G
6. G55C A77C

1: 0.635; 2: 0.652; 3: 0.055; 4: 0.0369; 5: 0.453; 6: 0.495
